System: HOP-62 NSCLC
Assay: NCI tumour cell line growth inhibition, 48 h
Kindly return yes (1) if reported TGI is no lower than 10 µM; return no (0) if it is lower.

molecule	study.system	class.label
COc1cc([C@@H]2c3cc4c(cc3[C@@H](Nc3ccc(NC(=O)c5cc(NC(=O)c6cc([N+](=O)[O-])cn6C)cn5C)cc3)[C@H]3COC(=O)[C@H]23)OCO4)cc(OC)c1O	HOP-62 NSCLC	yes (1)
Oc1ccc(-c2nc3ccc4[nH]ncc4c3c3c2CCCC3)c2cccnc12	HOP-62 NSCLC	no (0)
O=[N+]([O-])c1ccc2c(c1)S(=O)c1ccccc1-2 (stereo not given)	HOP-62 NSCLC	yes (1)
Nc1nc(Nc2ccc3c(c2)CCC(N2CCCC2)CC3)nn1-c1cc2c(nn1)-c1ccccc1CCC2 (stereo not given)	HOP-62 NSCLC	no (0)

Kindly determine if TGI recorded for NC(=S)N/N=C(\C(=O)Nc1ccc(Cl)c(Cl)c1)C1=NN(c2ccccc2)C(c2cccc([N+](=O)[O-])c2)CC1=O (stereo not given) is above or exactly 10 µM. yes (1)

Kindly determine if TGI recorded for C=CCc1cccc2cc(C(=O)Nc3nc(C45CC6CC(CC(C6)C4)C5)cs3)c(=O)oc12 is above or exactly 10 µM. yes (1)

Kindly determine if TGI recorded for c1ccc2nn(C3CCCCO3)nc2c1 (stereo not given) is above or exactly 10 µM. yes (1)

Kindly determine if TGI recorded for Cc1nn(C(=O)c2ccc(Cl)cc2)c2c1C(c1ccco1)SC(N)=N2 (stereo not given) is above or exactly 10 µM. yes (1)

Kindly determine if TGI recorded for CC(=O)C(C(=O)C(C)(C)C)C(=O)C(C)(C)C is above or exactly 10 µM. yes (1)

Kindly determine if TGI recorded for COc1cc2c3c(n(C)c(=O)c2cc1OC)-c1cc2c(cc1/C3=C\[C@@H](N)CCCCN)OCO2 is above or exactly 10 µM. yes (1)

###

Test system: HT29 colon
Test: NCI tumour cell line growth inhibition, 48 h
Some compounds, each annotated with its measured TGI.

Some solved entries appear below for comparison.
compound	TGI
CSc1nc(=O)c(C#N)c(-c2ccccc2)n1C1OC(COC(C)=O)C(OC(C)=O)C(OC(C)=O)C1OC(C)=O (stereo not given)	> 100 µM
Cc1ccc(N(C(=O)CC(=O)N2N=C(c3ccccc3)C(N=Nc3ccc([N+](=O)[O-])cc3)C2=O)C(=O)c2ccc(Cl)cc2)cc1 (stereo not given)	> 53 µM
O=C1CC(c2c[nH]c3ccccc23)C(=O)N1c1ccccc1 (stereo not given)	> 100 µM
CCOC(=O)C1(C(=O)OCC)CC=C(C)CC12C(=O)Nc1ccccc12 (stereo not given)	> 100 µM

Documented TGI of COc1cc(C)cc(OC)c1/C=C/C(=O)O : > 100 µM

###

System: OVCAR-4 ovarian
Test: NCI tumour cell line growth inhibition, 48 h
Kindly return criterion met if reported TGI is no lower than 30 µM; return criterion not met if it is lower.

Example entries begin here.
molecule	class.label
O=C1c2ccccc2C2(O)Oc3cccc(O)c3C12O (stereo not given)	criterion met
CCc1nc(N)nc(N)c1-c1ccc(Cl)c(N=NN(C)C)c1	criterion met

Kindly determine if TGI recorded for C/C(=C/c1c(C)[nH]c(=O)[nH]c1=O)C(=O)O is above or exactly 30 µM. criterion met

Kindly determine if TGI recorded for O=c1c(S(=O)(=O)Oc2ccccc2)coc2cc(F)ccc12 is above or exactly 30 µM. criterion met

Kindly determine if TGI recorded for OCCNc1nc2c(N3CCCC3)nc(N3CCNCC3)nc2nc1NCc1ccccc1 is above or exactly 30 µM. criterion met

Kindly determine if TGI recorded for COc1cnnc2c(C)c(-c3ccccc3)nn12 is above or exactly 30 µM. criterion met

Kindly determine if TGI recorded for COc1ccc(N2C(=O)C3c4[nH]c5ccccc5c4C4CCC(C(C)(C)C)CC4C3C2=O)cc1OC (stereo not given) is above or exactly 30 µM. criterion met

Kindly determine if TGI recorded for Clc1ccc(Nc2nc3ccccc3c3occc23)cc1 is above or exactly 30 µM. criterion not met

Kindly determine if TGI recorded for O=[N+]([O-])c1ccc2c(c1)S(=O)c1ccccc1-2 (stereo not given) is above or exactly 30 µM. criterion met

Kindly determine if TGI recorded for COc1cc2c3c(n(C)c(=O)c2cc1OC)-c1cc2c(cc1/C3=C\[C@@H](N)CCCCN)OCO2 is above or exactly 30 µM. criterion met

Kindly determine if TGI recorded for CN(C)/C=N/S(=O)(=O)c1nn2c(C=O)c(-c3cc4ccccc4oc3=O)nc2s1 is above or exactly 30 µM. criterion not met

Kindly determine if TGI recorded for CN1CCN(c2cc(Nc3cc(C4CC4)[nH]n3)nc(Nc3ccc(CC(=O)NCc4cccc(F)c4)cc3)n2)CC1 is above or exactly 30 µM. criterion not met

###

Some compounds, each annotated with its measured TGI.
Tested on: CAKI-1 renal
Assay: NCI tumour cell line growth inhibition, 48 h

Documented TGI of NC(CNc1ccc(O)cc1)C(=O)O (stereo unspecified) : > 100 µM

Documented TGI of O=C1CC(Cl)c2c(Cl)sc(Cl)c21 (stereo unspecified) : 3.18 µM

Documented TGI of CCN1CCCCC(=N\O)/C(=N/O)CCCC1 : > 100 µM

###

System: OVCAR-4 ovarian
Assay: NCI tumour cell line growth inhibition, 48 h
reported.metric: GI50

compound	observed
CC1(C)CC[C@]2(C(=O)O)CC[C@]3(C)[C@H](CC[C@@H]4[C@@]5(C)CCC(=O)C(C)(C)[C@@H]5CC[C@]43C)[C@H]2[C@H]1OC(=O)C(F)(F)F	13.1 µM
CC(C)(C)c1nnc2n(c1=O)N=CC(c1ccc(Br)cc1)S2 (centres undefined)	33.9 µM
CCC(C)CC(CC)NCCN1CCN(C(CC)CC(C)CC)C1=S (centres undefined)	1.59 µM
O=C(Nc1ccccc1F)c1ccc(NC2=C(Cl)C(=O)N(Cc3ccccc3)C2=O)cc1	11.1 µM
Oc1ccc(-c2nc3ccc4[nH]ncc4c3c3c2CCCC3)c2cccnc12	0.781 µM

Known value: OVCAR-4 ovarian GI50 of the compound COc1ccc(/C=C/C(c2cc(OC)c(OC)c(OC)c2)n2cncn2)cc1O (centres undefined) equals 7.05 µM

Known value: OVCAR-4 ovarian GI50 of the compound Clc1ccc(-c2cn(-c3ccccc3)c(-c3ccccc3)n2)c(Cl)c1 equals 0.884 µM

Known value: OVCAR-4 ovarian GI50 of the compound COC1CCC(n2c([C@@H]3CCCC(=O)N3c3ccc(F)c(F)c3)nc3cc(-c4c(C)noc4C)ccc32)CC1 (some centres undefined) equals 0.782 µM

Known value: OVCAR-4 ovarian GI50 of the compound CCCCNCC(O)c1cc(-c2ccc(C(F)(F)F)cc2)nc(-c2ccc(C(F)(F)F)cc2)c1 (centres undefined) equals 2.11 µM

Known value: OVCAR-4 ovarian GI50 of the compound COc1cc(/C=C/C(=O)c2cc(OC)c(OC)c(OC)c2)cc(OC)c1OC equals 3.63 µM

Known value: OVCAR-4 ovarian GI50 of the compound COC(=O)[C@]12CC[C@@H](C)[C@H](C)[C@@H]1C1=CC[C@@H]3[C@@]4(C)C=C(O)C(=O)C(C)=C4CC[C@@]3(C)[C@]1(C)CC2 equals 11.9 µM

Known value: OVCAR-4 ovarian GI50 of the compound CCCCCCCCCC(=O)N[C@H]1CCc2cc(OC)c(OC)c(OC)c2-c2ccc(SC)c(=O)cc21 equals 10.8 µM

Known value: OVCAR-4 ovarian GI50 of the compound C=C1C(=O)O[C@H]2[C@H]1CC(=O)/C(C)=C\CC[C@@]1(C)O[C@@H]21 equals 3.75 µg/mL

Known value: OVCAR-4 ovarian GI50 of the compound Nc1nc(Nc2ccc3c(c2)CCC(N2CCCC2)CC3)nn1-c1cc2c(nn1)-c1ccccc1CCC2 (centres undefined) equals 1.15 µM

###

Test system: MALME-3M melanoma
Assay: NCI tumour cell line growth inhibition, 48 h
Some compounds, each annotated with its measured GI50.

Some solved entries appear below for comparison.
compound	GI50
NCC(=O)CCC(=O)O	> 100 µM
COC1CCC(n2c([C@@H]3CCCC(=O)N3c3ccc(F)c(F)c3)nc3cc(-c4c(C)noc4C)ccc32)CC1 (stereo partly drawn)	1.74 µM
CCCCC#Cc1cccc(=O)o1	57.4 µM

Documented GI50 of CC(C)(C)n1cc(-c2ccnc(NCCNS(=O)(=O)c3cccc4ccccc34)c2)c(-c2cccc(F)c2)n1 : 15.3 µM

Documented GI50 of Nc1nc(Nc2ccc3c(c2)CCC(N2CCCC2)CC3)nn1-c1cc2c(nn1)-c1ccccc1CCC2 (stereo not drawn) : 1.42 µM

Documented GI50 of O=[N+]([O-])c1ccc(O)c2ncccc12 : 3.55 µM

Documented GI50 of CC(C)c1ccc(O)c(=O)cc1 : 19.9 µM

Documented GI50 of C=C1CO[C@@H]2C[C@@H]1CCC1(C)OC1CC/C(C)=C/CC[C@@]2(C)O (stereo partly drawn) : 48.8 µM

Entry source: PubChem BioAssay (NCI)
